Tested on: HCT-15 colon
Assay: NCI-60 one-dose screen, 48 h (100 = growth as untreated, 0 = no growth, -100 = all killed)
Details: 10 µM unless noted
About 83,000 compounds went through this panel and 20% of them were active in at least one assay; those are over-represented in the sample as a whole. Active and inactive are the calls of the source. The calls were made as follows: active = growth percent below 10; inactive = the rest.
Here, each record is paired with measured growth data.

Recorded growth, per entry:
>>> print(df.to_string())
                                   molecule  target_or_test_system            result
0  CCCCCCNC(=O)Oc1ccc(/C(=C(/CC)Cc2ccccc2)c2ccc(OCCN(CC)CC)cc2)cc1           HCT-15 colon    5.48% (active)
1  Cc1nn(-c2ccccc2)c(N2CCOCC2)c1/C=N/N=c1\sc2ccccc2n1C           HCT-15 colon  39.1% (inactive)
2  CC(=O)OC1CCC2(C)C(CCC3C4CC=C(C(C)=O)C4(C)OC(=O)CC32)C1 (centres undefined)           HCT-15 colon    5.27% (active)
3                 BrC(Br)(Br)c1cnc2ccccc2n1           HCT-15 colon  31.7% (inactive)
4  C[C@H]1[C@H](C)CC[C@]2(CO)CC[C@]3(C)C(=CC[C@@H]4[C@@]5(C)CCCNC(C)(C)[C@@H]5CC[C@]43C)[C@H]12           HCT-15 colon    6.84% (active)

Fill blank: measured growth of the molecule Cc1c(C(=O)NO)sc2ncnc(Nc3ccc(NC(=S)Nc4ccccc4)cc3)c12 is ____.
95.4% (inactive)

Entry COc1ccc(/C=N/NC(=O)c2cccc3cc[nH]c23)cc1O please
33.2% (inactive)

// next record CCCCCCc1nc2nc(Cl)c(Cl)nc2[nH]1
57.2% (inactive)

Same question for COc1ccc(CNCCN2C(=O)c3ccc4c5c(ccc(c35)C2=O)C(=O)N(CCNCc2ccc(OC)cc2)C4=O)cc1 please.
-68.1% (active)

---

This listing pairs molecules with measured growth.
Test system: T-47D breast
Experiment: NCI-60 one-dose screen, 48 h (100 = growth as untreated, 0 = no growth, -100 = all killed)
Conditions: 10 µM unless noted
About 83,000 compounds went through this panel and 20% of them were active in at least one assay; those are over-represented in the sample as a whole.
// return numeric value only (unit: %, not printed)

>>> df
                                   molecule  numeric_readout
0  COc1ccc(-c2nc(N=Nc3c(O)[nH]c4ccccc34)nc(N3CCOCC3)c2C#N)cc1             65.4

Query: growth; subject: NNC(=O)/C(=C\c1ccc([N+](=O)[O-])cc1)CC(=O)c1ccc(Cl)c(Cl)c1
77.1

Then CCOC(=O)C1CC(=O)c2cc(OC)c(OC)cc2C1 (stereo unspecified) ?
115

Next molecule: O=C1Nc2ccccc2/C1=C\c1cccc(/C=C2/C(=O)Nc3ccccc32)n1
-51.6

Would you mind doing Clc1ccc(N2N=C(c3cccc(Nc4ccncc4)c3)CC2c2ccc(Br)cc2)cc1 (stereo unspecified) as well?
48.7

Now the molecule CSc1nnc2c(=O)n(C)c(=O)n(C)c2n1
97.5

---

Tested on: SK-OV-3 ovarian
Assay: NCI-60 one-dose screen, 48 h (100 = growth as untreated, 0 = no growth, -100 = all killed)
Conditions: 10 µM unless noted
About 83,000 compounds went through this panel and 20% of them were active in at least one assay; those are over-represented in the sample as a whole.
measure: growth (%)
Number in %, nothing else.

                                   molecule  numeric_readout
0               O=c1[nH]c(=O)[nH]c(=S)[nH]1              111
1  O=C(N=Nc1c(O)[nH]c2ccc(F)cc12)c1cc2ccccc2[nH]1              110

Looking for the measured growth of CC(C)(C)OC(=O)N1C/C(=C\c2ccoc2)C(=O)/C(=C/c2ccoc2)C1 , can you help?
99.5

Same question, Nc1nc(SN=Nc2ccc(S(N)(=O)=O)cc2)c2[nH]cnc2n1 this time
7.11
